Measured values drawn from PubChem BioAssay (NCI) for this set.

System: HT29 colon
Protocol summary: NCI-60 one-dose screen, 48 h (100 = growth as untreated, 0 = no growth, -100 = all killed)
Test conditions: 10 µM
Protocol: Growth inhibition of the HT29 human tumor cell line is measured as a screen for anti-cancer activity. Cells are grown in 96 well plates and exposed to the test compound for 48 hours. Compounds are tested at a single concentration, which is 10^-5 M for most compounds. The reported endpoint is percent growth (GI% or GIPRCNT), where numbers from 0 - 100% represent growth inhibition, and numbers from -100% - 0 represent cell death. For example, a value of 40 represents 60% growth inhibition. […]
Compounds without any hit were thinned out: in the full panel of roughly 83,000, 20% have a hit.
Measurement label: growth (%)
All answers are understood in %, so give the number only.

As a guide, the following entries are already answered.
structure_as_smiles=Cc1ccc(NC(=O)NCn2c(=O)[nH]c3ccccc3c2=O)cc1 output_unit=% value_reported=109
structure_as_smiles=CC(=O)Nc1ccc(-c2cn(-c3cccc(C(=O)Nc4cccc(OC(F)(F)F)c4)c3)nn2)cn1 output_unit=% value_reported=96.9

Please examine the following record next.
Which value of growth has been reported for `O=C(CSc1nnc(-c2c[nH]c3ccccc23)n1-c1ccccc1)c1ccccc1` in the records? 47.9

---

Tested on: SK-MEL-5 melanoma
Protocol summary: NCI-60 one-dose screen, 48 h (100 = growth as untreated, 0 = no growth, -100 = all killed)
Test conditions: 10 µM
About 83,000 compounds went through this panel and 20% of them were active in at least one assay; those are over-represented in the sample as a whole.
Measurement label: growth (%)
All answers are understood in %, so give the number only.

structure_as_smiles=CCCCCCCCCCCCCCCCCCCC(=O)NCCc1c[nH]c2ccc(OC(=O)CCCC(=O)OCCOOCCOOCCOOCCOOCCOOCCOOCCOOCCOOCCOOCCOOCCOOCCOC)cc12 value_reported=99.6
structure_as_smiles=NS(=O)(=O)c1ccc(NC(=O)CSc2ccc(-c3ccccc3)nn2)c(Br)c1 value_reported=85.7
structure_as_smiles=CN1CCN(c2ccc(C(=O)/C=C/c3ccc(C#N)cc3)cc2)CC1 value_reported=83.9

Please examine the following record next.
Which value of growth has been reported for `O=C(CN1CCN(c2ncnc3c2cnn3-c2ccccc2)CC1)Nc1nncs1` in the records? 29.4

---

Below, each entry is listed alongside its reported growth.
Tested on: NCI-H522 lung
Protocol summary: NCI-60 one-dose screen, 48 h (100 = growth as untreated, 0 = no growth, -100 = all killed)
Test conditions: 10 µM
The panel holds about 83,000 compounds, 20% with a hit somewhere; the sample as a whole holds those more often.
All answers are understood in %, so give the number only.

As a guide, the following entries are already answered.
structure_as_smiles=CC1(C)CC[C@]23CC[C@]4(C)[C@H](CC[C@@H]5[C@@]6(C)CC[C@H](N)C(C)(C)[C@@H]6CC[C@]54C)[C@H]2[C@H]1OC3=O measurement_label=growth value_reported=-85.5
structure_as_smiles=CONC[C@]1(C)C=C2C(=O)[C@](C)(O)C3(CC3)C(C)=C2[C@H]1O measurement_label=growth value_reported=-71.1
structure_as_smiles=COC(=O)C[C@](O)(CCCC(C)(C)O)C(=O)O[C@H]1C(OC)=C[C@@]23CCC(=O)N2CCc2cc4c(cc2[C@@H]13)OCO4 measurement_label=growth value_reported=78.4
structure_as_smiles=C/C(=C\CC/C=C(\C)CC/C=C(\C)CC[C@@H](O)C(C)(C)O)CC/C=C(\C)CC[C@@H](O)C(C)(C)O measurement_label=growth value_reported=21.8

Which value of growth has been reported for `Cc1ccc(C(C)C)cc1NC(=O)c1ccccc1N(C)C` in the records? 78.3

Which value of growth has been reported for `COc1ccc(CN2[C@H](C(=O)NCCCCCCC(=O)NO)Cc3c([nH]c4ccccc34)[C@H]2C2CC2)cc1` in the records? -44.6
